B1: library; numbered along this chain (parent)
chain: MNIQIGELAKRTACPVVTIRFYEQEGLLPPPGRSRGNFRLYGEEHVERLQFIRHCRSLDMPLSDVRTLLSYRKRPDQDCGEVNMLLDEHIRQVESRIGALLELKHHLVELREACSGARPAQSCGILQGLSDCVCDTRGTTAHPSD

- Variants of: B1
- Test name: sfGFP reporter fluorescence (15 h) (µM FITC); higher = higher leak
- Measurement conditions: library round: Round 0; ligand: none
# sfGFP reporter fluorescence listing for each entry below
// no unit, no text: just the number

The following variants have reported results that may help.
N83V = 0.0577
R33D = 0.0651
L107E = 0.0588
G128Q = 0.0698
L107V = 0.0854

IN: Would you kindly share the measured sfGFP reporter fluorescence for `P61A` ?
OUT: 0.0665

IN: Then this variant: `L86A`
OUT: 0.07

IN: What do you get for `N83S` ?
OUT: 0.0605

IN: Also need `F21N` , thanks.
OUT: 0.0605

IN: And what about the variant `K104T` ?
OUT: 0.0619

IN: Do the same for `L69A` please
OUT: 0.0629

IN: Would you mind doing `E109S` as well?
OUT: 0.0592
